system: BT-549 breast; assay: NCI tumour cell line growth inhibition, 48 h; in the data active means GI50 below about 0.43 µM; inactive means the rest
Outcome codes: active, inactive

INSERT INTO measurements (compound, system_name, assigned_label) VALUES
  ('CS(=O)(=O)c1nccc(-c2c(-c3cccc(OCc4ccccc4)c3)nc3sccn23)n1', 'BT-549 breast', 'inactive'),
  ('Cc1cc(C)nc(NS(=O)(=O)c2ccc(Nc3nc4nc(NCc5ccccc5)nc(-c5ccc(O)cc5)c4c(=O)[nH]3)cc2)n1', 'BT-549 breast', 'inactive'),
  ('OCCNC(=S)Nc1ccc(-c2nc(N3C[C@H]4CC[C@@H](C3)O4)c3cccn3n2)cc1', 'BT-549 breast', 'active'),
  ('CC(C)C[C@H](NC(=O)[C@H](Cc1ccccc1)NC(=O)c1cnccn1)B(O)O', 'BT-549 breast', 'active'),
  ('C[C@@]1([C@H](OC(=O)c2cccc3ccccc23)C(N)=O)CO1', 'BT-549 breast', 'inactive'),
  ('Nc1c(C(=O)c2cccc(C(O)(CO)CO)c2)cnn1-c1ccc(F)cc1', 'BT-549 breast', 'inactive'),
  ('COc1ccc2c(c1)C(=O)c1c-2n(CCCCl)c(=O)c2cc([N+](=O)[O-])ccc12', 'BT-549 breast', 'inactive'),
  ('COc1ccc2nc(-c3ccc(Cl)cc3)cc(-c3nnc(SCC(=O)Nc4ccc(/C(C)=N\O)cc4)o3)c2c1', 'BT-549 breast', 'inactive'),
  ('N=C(N)c1ccc(CS(=O)(=O)F)cc1', 'BT-549 breast', 'inactive'),
  ('C=C(c1ccc(OC)c(/C=C/C(=O)c2cc(OC)c(OC)c(OC)c2)c1)c1cc(OC)c(OC)c(OC)c1', 'BT-549 breast', 'inactive'),
  ('COc1cc2c(cc1OCCCOc1cc3c(cc1OC)C(=O)N1CC(F)(F)C[C@H]1C=N3)N=C[C@@H]1CC(F)(F)CN1C2=O', 'BT-549 breast', 'inactive'),
  ('O=C(/C=C/c1ccccc1)Nc1ncc(Cc2ccccc2)s1', 'BT-549 breast', 'inactive'),
  ('Nc1nc2ccccc2c2[nH]c3ccccc3c12', 'BT-549 breast', 'inactive'),
  ('COc1cc(/C=C/C(=O)c2ccc(F)cc2)ccc1OCCCCOc1cc2c(cc1OC)C(=O)N1CCCC1C=N2 (stereo unspecified)', 'BT-549 breast', 'inactive'),
  ('O=c1ncc(I)c[nH]1', 'BT-549 breast', 'inactive'),
  ('COc1ccc(/C=C(/C(=O)N2CCN(c3ccc(C)cc3)CC2)c2cc(OC)c(OC)c(OC)c2)cc1N', 'BT-549 breast', 'active');

---

test system: SF-295 CNS; experiment: NCI tumour cell line growth inhibition, 48 h; in the data active = GI50 below about 0.43 µM; inactive = the rest
Outcome codes: TRUE = active, FALSE = inactive

INSERT INTO measurements (input_smiles, system_name, assigned_label) VALUES
  ('O=C1C2=C(C(=O)c3c(O)ccc(O)c31)N(c1cccnc1)Cc1ccccc1O2', 'SF-295 CNS', 'FALSE'),
  ('C=C(C)[C@@H]1CC[C@]2(C(=O)N3CCN(C)CC3)CC[C@]3(C)[C@H](CC[C@@H]4[C@@]5(C)C/C(=C/c6ccncc6)[C@H](O)C(C)(C)[C@@H]5CC[C@]43C)[C@@H]12', 'SF-295 CNS', 'FALSE'),
  ('COc1ccc2nc(-c3ccc(Cl)cc3)cc(-c3nnc(SCC(=O)Nc4ccc(/C(C)=N\O)cc4)o3)c2c1', 'SF-295 CNS', 'FALSE'),
  ('COc1ccc(-c2c(-c3cc4c(c(OC)c3OC)OCO4)noc2N)cc1', 'SF-295 CNS', 'TRUE');
